Numbers sourced from patent US11142533B2.

study system: ALK (T1151M) (Homo sapiens, UniProt Q9UM73, T1151M)
Construct: purchased Reaction Biology Corporation (assay run there)
Sequence (Q9UM73 19-1620 T1151M): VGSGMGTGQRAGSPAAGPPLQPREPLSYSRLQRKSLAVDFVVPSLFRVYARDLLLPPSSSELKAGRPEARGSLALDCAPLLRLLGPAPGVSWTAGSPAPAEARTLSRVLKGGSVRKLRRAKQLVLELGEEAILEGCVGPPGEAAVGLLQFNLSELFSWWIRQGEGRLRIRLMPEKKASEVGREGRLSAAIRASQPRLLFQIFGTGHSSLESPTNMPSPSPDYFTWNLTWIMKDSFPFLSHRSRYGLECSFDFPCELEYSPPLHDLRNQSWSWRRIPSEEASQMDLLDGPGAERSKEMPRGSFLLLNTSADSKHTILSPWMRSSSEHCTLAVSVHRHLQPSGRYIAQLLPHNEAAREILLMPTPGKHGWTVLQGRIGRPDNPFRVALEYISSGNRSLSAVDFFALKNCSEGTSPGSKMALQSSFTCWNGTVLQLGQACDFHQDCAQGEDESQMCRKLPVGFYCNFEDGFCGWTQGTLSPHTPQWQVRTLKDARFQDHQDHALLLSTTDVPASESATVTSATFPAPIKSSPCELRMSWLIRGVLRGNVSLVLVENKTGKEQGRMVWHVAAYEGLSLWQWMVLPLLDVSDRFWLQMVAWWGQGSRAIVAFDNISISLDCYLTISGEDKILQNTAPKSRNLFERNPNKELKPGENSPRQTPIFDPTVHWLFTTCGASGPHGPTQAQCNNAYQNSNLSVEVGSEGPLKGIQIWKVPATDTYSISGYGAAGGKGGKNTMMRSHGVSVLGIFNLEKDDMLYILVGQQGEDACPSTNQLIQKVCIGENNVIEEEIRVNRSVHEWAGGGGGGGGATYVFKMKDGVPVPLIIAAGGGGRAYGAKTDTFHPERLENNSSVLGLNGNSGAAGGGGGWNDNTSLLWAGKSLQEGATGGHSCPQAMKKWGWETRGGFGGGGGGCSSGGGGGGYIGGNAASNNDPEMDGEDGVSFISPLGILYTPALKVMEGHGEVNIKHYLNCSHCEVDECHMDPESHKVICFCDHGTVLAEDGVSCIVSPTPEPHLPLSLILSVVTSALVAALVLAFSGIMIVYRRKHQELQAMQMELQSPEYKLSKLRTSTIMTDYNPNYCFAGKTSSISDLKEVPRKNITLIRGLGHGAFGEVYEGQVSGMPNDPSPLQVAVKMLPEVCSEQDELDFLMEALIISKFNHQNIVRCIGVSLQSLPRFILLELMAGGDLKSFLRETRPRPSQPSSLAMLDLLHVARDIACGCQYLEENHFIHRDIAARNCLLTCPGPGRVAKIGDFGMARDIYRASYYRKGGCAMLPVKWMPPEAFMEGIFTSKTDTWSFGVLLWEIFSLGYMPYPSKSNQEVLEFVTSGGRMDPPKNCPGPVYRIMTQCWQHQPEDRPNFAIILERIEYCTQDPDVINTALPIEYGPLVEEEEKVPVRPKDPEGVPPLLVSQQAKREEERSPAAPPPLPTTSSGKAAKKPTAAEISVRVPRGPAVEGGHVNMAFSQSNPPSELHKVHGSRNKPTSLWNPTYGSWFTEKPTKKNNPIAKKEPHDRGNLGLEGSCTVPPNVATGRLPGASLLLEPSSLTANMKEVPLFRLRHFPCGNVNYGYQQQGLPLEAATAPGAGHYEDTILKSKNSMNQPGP
procedure summary: Biochemical kinase assay (Reaction Biology)
conditions used: 10 μM ATP
measured endpoint: IC50 (nM)
One number for each entry, in nM.

Qu. Check ALK (T1151M) (Homo sapiens, UniProt Q9UM73, T1151M) data and give IC50 for `O=C1NCC2(CC2)COc2ccc(F)cc2CN2c3nc4c1cnn4cc3OC[C@H]2C(F)F` .
Ans. 0.28

* * *

study system: ALK (F1174L) (Homo sapiens, UniProt Q9UM73, F1174L)
Sequence (Q9UM73 19-1620 F1174L): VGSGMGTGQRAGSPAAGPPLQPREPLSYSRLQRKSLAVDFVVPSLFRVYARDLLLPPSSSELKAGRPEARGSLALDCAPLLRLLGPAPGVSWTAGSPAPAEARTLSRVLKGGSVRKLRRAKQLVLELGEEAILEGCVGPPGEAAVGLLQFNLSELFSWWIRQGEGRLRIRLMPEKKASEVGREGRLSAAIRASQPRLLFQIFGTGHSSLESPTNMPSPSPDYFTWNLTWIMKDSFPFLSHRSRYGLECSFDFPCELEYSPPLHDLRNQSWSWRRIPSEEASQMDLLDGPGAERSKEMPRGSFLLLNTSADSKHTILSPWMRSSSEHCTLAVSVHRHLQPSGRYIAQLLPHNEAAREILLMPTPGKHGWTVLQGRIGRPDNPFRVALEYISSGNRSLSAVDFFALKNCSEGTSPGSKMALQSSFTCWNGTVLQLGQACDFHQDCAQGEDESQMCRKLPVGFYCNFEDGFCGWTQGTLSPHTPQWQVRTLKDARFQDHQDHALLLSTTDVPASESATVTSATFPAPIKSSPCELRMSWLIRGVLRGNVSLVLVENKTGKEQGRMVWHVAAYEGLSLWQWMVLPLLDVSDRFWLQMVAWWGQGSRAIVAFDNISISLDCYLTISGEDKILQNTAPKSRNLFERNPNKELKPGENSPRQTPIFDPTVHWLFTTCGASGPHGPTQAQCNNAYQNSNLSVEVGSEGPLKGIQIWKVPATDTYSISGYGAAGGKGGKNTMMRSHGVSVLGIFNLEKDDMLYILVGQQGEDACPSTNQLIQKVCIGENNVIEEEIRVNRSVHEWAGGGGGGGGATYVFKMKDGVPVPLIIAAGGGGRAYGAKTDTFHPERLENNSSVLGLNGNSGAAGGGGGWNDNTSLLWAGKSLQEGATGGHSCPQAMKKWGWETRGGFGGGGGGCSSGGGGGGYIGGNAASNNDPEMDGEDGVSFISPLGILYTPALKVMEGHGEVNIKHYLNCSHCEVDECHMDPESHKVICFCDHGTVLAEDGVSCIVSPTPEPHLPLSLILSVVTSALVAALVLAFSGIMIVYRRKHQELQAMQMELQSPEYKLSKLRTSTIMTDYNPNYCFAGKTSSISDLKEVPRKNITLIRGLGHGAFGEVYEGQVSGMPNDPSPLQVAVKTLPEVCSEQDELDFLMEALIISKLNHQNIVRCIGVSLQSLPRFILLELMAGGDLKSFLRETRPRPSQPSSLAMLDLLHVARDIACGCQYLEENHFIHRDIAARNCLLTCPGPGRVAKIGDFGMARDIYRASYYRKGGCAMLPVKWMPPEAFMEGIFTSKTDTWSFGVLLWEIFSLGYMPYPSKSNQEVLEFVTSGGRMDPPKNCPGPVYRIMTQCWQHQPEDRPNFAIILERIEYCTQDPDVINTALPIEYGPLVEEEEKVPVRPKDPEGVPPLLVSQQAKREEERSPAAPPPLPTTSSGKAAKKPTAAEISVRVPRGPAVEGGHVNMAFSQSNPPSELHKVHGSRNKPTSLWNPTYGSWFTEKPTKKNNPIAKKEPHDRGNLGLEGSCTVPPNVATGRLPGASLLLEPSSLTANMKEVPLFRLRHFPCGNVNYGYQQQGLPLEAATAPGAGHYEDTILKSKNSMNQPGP
procedure summary: Biochemical kinase assay (Reaction Biology)
conditions used: 10 μM ATP
measured endpoint: IC50 (pM)
Numbers only, in pM.

Qu. Quote IC50 reported for O=C1NCC2(CC2)COc2ccc(F)cc2CN2c3nc4c1cnn4cc3OC[C@H]2C(F)F [Compound 2] please.
Ans. 420

* * *

study system: ALK (E1210K/D1203N) (Homo sapiens, UniProt Q9UM73, D1203N/E1210K)
Construct: purchased Reaction Biology Corporation (contract assay)
procedure summary: Biochemical kinase assay (Reaction Biology)
conditions used: 10 μM ATP
measured endpoint: IC50 (nM)
Numbers only, in nM.

Qu. Name the value of IC50 reported for `O=C1NCC2(CC2)COc2ccc(F)cc2CN2c3nc4c1cnn4cc3OC[C@H]2C(F)F` when tested on ALK (E1210K/D1203N) (Homo sapiens, UniProt Q9UM73, D1203N/E1210K).
Ans. 4

* * *

study system: ALK (D1203N) (Homo sapiens, UniProt Q9UM73, D1203N)
procedure summary: Biochemical kinase assay (Reaction Biology)
conditions used: 10 μM ATP
measured endpoint: IC50 (nM)
Answers are plain numbers, in nM.

Qu. Name the recorded IC50 of the compound listed here: O=C1NCC2(CC2)COc2ccc(F)cc2CN2c3nc4c1cnn4cc3OC[C@H]2C(F)F [Compound 2]
Ans. 2.9

* * *

study system: ALK (E1210K/S1206C) (Homo sapiens, UniProt Q9UM73, E1210K/S1206C)
Construct: purchased Reaction Biology Corporation (contract assay)
Sequence (Q9UM73 19-1620 S1206C/E1210K): as the sequence (Q9UM73 19-1620 T1151M) above, with M1133T, S1188C, E1192K counted along it
procedure summary: Biochemical kinase assay (Reaction Biology)
conditions used: 10 μM ATP
measured endpoint: IC50 (nM)
One number for each entry, in nM.

Qu. Identify the reported IC50 for the following entry. `O=C1NCC2(CC2)COc2ccc(F)cc2CN2c3nc4c1cnn4cc3OC[C@H]2C(F)F`
Ans. 0.13

* * *

study system: ALK (E1210K) (Homo sapiens, UniProt Q9UM73, E1210K)
Sequence (Q9UM73 19-1620 E1210K): as the sequence (Q9UM73 19-1620 T1151M) above, with M1133T, E1192K counted along it
procedure summary: Biochemical kinase assay (Reaction Biology)
conditions used: 10 μM ATP
measured endpoint: IC50 (nM)
One number for each entry, in nM.

Qu. For the molecule `O=C1NCC2(CC2)COc2ccc(F)cc2CN2c3nc4c1cnn4cc3OC[C@H]2C(F)F` , give its measured IC50 value.
Ans. 0.21

* * *

procedure summary: Liver microsomal stability
Type: in vitro ADME
conditions used: female, rat, liver microsomes, pH 7.4; 1 μM compound, 0.5 mg/mL liver microsome protein
measured endpoint: microsomal CLint at 1 µM (µL/min/mg)
Numbers only, in µL/min/mg.

Could you tell me microsomal CLint at 1 µM for each of these molecules? They are listed below.
1. CC1(C)COc2ccc(F)cc2CN2c3nc4c(cnn4cc3OC[C@H]2C(F)F)C(=O)N1
2. C[C@@H]1COc2ncc(F)cc2CN2c3nc4c(cnn4cc3OC[C@H]2C)C(=O)N1 [Comp. Ex. 1, reference compound]
3. O=C1NCC2(CC2)COc2ccc(F)cc2CN2c3nc4c1cnn4cc3OC[C@H]2C(F)F
4. C[C@@H]1COc2cn3ncc4c3nc2N1Cc1cc(F)cnc1OCC(C)(C)NC4=O [Comp. Ex. 2, reference compound]

Ans.
1. 1.5
2. 10
3. 3.5
4. 5.9
